Test system: SN12C renal
Experimental Details: NCI-60 one-dose screen, 48 h
Condition Set: 10 µM unless noted
About 83,000 compounds went through this panel and 20% of them were active in at least one assay; those are over-represented in the sample as a whole. The source made the active and inactive calls. The calls were made as follows: active = growth percent below 10; inactive = the rest.
Hi! Could you answer with just one of these? 1 = active, 0 = inactive

# example entries with known answers
O=C1NCCN1/N=C/c1c(Cl)nc2n1CCS2	0
CCCCCCCCCC[N+](C)(C)N	0
CCC(C)[C@H](NC(=O)Nc1cc(C(F)(F)F)cc(C(F)(F)F)c1)C(=O)N[C@@H](Cc1cn(C)cn1)C(=O)OC (stereo partly specified)	1
Clc1ccc(I)c2ccccc12	0

Test call, this compound: `NC(N)=N/N=C/c1cccc(Br)c1` 0

Test call, this compound: `CCCCCCCCCCCCCCCCCC1=NCCN1CS(=O)(=O)O` 0

* * *

Test system: SK-OV-3 ovarian
Experimental Details: NCI-60 one-dose screen, 48 h
Condition Set: 10 µM unless noted
The panel holds about 83,000 compounds, 20% with a hit somewhere; the sample as a whole holds those more often. Calls of active or inactive are those of the source. The calls were made as follows: active = growth percent below 10; inactive = the rest.
Hi! Could you answer with just one of these? T = active, F = inactive

# example entries with known answers
O=C1c2cc([N+](=O)[O-])ccc2-c2cc(Cl)c(NC(=O)C(F)(F)F)cc21	F
C/C=C(/C)C(=O)OC1C=C(CO)C(=O)C(OC(=O)C(C)(O)C(C)Cl)C1C(C)C (stereo not given)	F
C[C@@H](c1ccc2c(c1)[nH]c1ccc(Cl)cc12)c1nc2ccccc2[nH]1	F
CCCCN(CCCC)CCCNc1c2c(nc3ccc(Cl)cc13)CCCC2	F
COc1cc(-c2c3c(cn2CCN2CCCCC2)-c2oncc2CC3)cc(OC)c1OC	F
COC(=O)C(N)CC(C)C (stereo not given)	F
CCCCCCCCc1ccc(CCC(N)(CO)CO)cc1	F
Cc1c(CN(C)C)cc(C(C)C)cc1C(C)C	F
O=C1/C(=N\c2cc(=O)[nH]n2S(=O)(=O)c2ccccc2)Nc2ccccc21	F
C/C(=N\Nc1ccc(Cl)cn1)c1ccc2ccccc2n1	T

Test call, this compound: `Nc1nc(-c2cccc(Br)c2)cc(-c2cc3ccccc3oc2=O)n1` F

Test call, this compound: Nc1nc2c(c3cnccc13)C(c1cccc(Br)c1)Cc1cnccc1-2 (stereo not given) F

Test call, this compound: `COc1ccc(Cn2cc3c(c2)-c2oncc2CC3)cc1OC` T

Test call, this compound: `COc1ccc2c(N)ncc(C#Cc3cc(C(=O)Nc4ccc(CN5CCN(C)CC5)c(C(F)(F)F)c4)cnc3C)c2c1` F

Test call, this compound: O=C1C(Br)=CC2C1C1C3CCC3C2(Br)C12OCCO2 (stereo not given) F

Test call, this compound: `O=C1OC(c2ccc(-c3ccccc3)cc2)=C/C1=C/c1c2ccccc2cc2ccccc12` F

Test call, this compound: `O=C(NCCNCCO)c1cc([N+](=O)[O-])cc([N+](=O)[O-])c1O` F

* * *

Test system: SF-295 CNS
Experimental Details: NCI-60 one-dose screen, 48 h (100 = growth as untreated, 0 = no growth, -100 = all killed)
Condition Set: 10 µM unless noted
The panel holds about 83,000 compounds, 20% with a hit somewhere; the sample as a whole holds those more often.
Consider the following compounds and their measured growth readings.
Write the answer as a number in %, unit excluded.

The examples below pair each entry with its known result.
CC(=O)N1CCN(CCNC(=O)n2cc(-c3ccncc3)c(-c3cc(O)cc(Cl)c3)n2)CC1	80.5
O=C(CN1CCN(c2cccc(Cl)c2)CC1)N1CCN(c2nnc(-c3ccc(Cl)cc3)c(-c3ccc(Cl)cc3)n2)CC1	84.3
COc1ccc(/C=C(/C(=O)N2CCCCC2)c2cc(OC)c(OC)c(OC)c2)cc1	14.1

Then there is this compound:
Kindly note: SF-295 CNS, N#CC1=C(N2CCOCC2)NC2c3ccccc3Sc3ccccc3N2C1=N (centres undefined) , growth value reported: 116

* * *

System: SF-539 CNS
Experimental Details: NCI-60 one-dose screen, 48 h
Condition Set: 10 µM unless noted
The panel holds about 83,000 compounds, 20% with a hit somewhere; the sample as a whole holds those more often. Active and inactive are the calls of the source. The calls were made as follows: active = growth percent below 10; inactive = the rest.
Hi! Could you answer with just one of these? 1 for active, 0 for inactive

# example entries with known answers
CCN(CC)CCCC(C)Nc1c(C)cnc2cc(Cl)c(C)cc12 (stereo unspecified)	0
CC(O)C(N)=O (stereo unspecified)	0

Test call, this molecule: `Nc1cc2c(cc1Br)[nH]c(=O)c1ccccc12` 0

Test call, this molecule: `C=C(C)[C@@H]1CC[C@]2(COC(=O)c3ccccc3C(=O)O)CC[C@]3(C)[C@H](CC[C@@H]4[C@@]5(C)CCCNC(C)(C)[C@@H]5CC[C@]43C)[C@@H]12` 0

Test call, this molecule: `CCCCCCCCCCCCCCCCCC1=NCCN1CCNC(C)=O` 0

Test call, this molecule: `O=C(NCCNCCO)c1cc([N+](=O)[O-])cc([N+](=O)[O-])c1O` 0

Test call, this molecule: COc1ccc(C2CC(=O)c3c(O)cc(OC4OC(COC5OC(C)C(O)C(O)C5O)C(O)C(O)C4O)cc3O2)cc1O (stereo unspecified) 0

Test call, this molecule: `Clc1ccc(N/N=C(\c2ccccc2)c2ccccn2)nc1` 1

Test call, this molecule: `COc1cc(N2C(=O)C=CC2=O)ccc1N1C(=O)C=CC1=O` 0

* * *

Tested on: CCRF-CEM leukemia
Experimental Details: NCI-60 one-dose screen, 48 h
Condition Set: 10 µM
Compounds without any hit were thinned out: in the full panel of roughly 83,000, 20% have a hit. Calls of active or inactive are those of the source. The calls were made as follows: active = growth percent below 10; inactive = the rest.
Hi! Could you answer with just one of these? YES for active, NO for inactive

Clc1ccc(N/N=C(\c2ccccc2)c2ccccn2)nc1	YES
COc1ccc(/C=C(/C(=O)N2CCCCC2)c2cc(OC)c(OC)c(OC)c2)cc1	NO
COc1cc(Cn2ccc3c2-c2oncc2CC3)cc(OC)c1	NO
C=CCNC(=S)NNc1ccc([N+](=O)[O-])cn1	NO
COc1ccc(C(=O)CN2C(=O)NC(c3ccccc3)(c3ccccc3)C2=O)cc1	NO
C#CCCCCCCC[C@@H]1OC(=O)[C@H]([C@@H](C)CC)NC(=O)[C@@H]([C@@H](C)CC)NC(=O)CC(=O)[C@@H]1C	NO
C/C(=N\Nc1ccc(Cl)cn1)c1ccc2ccccc2n1	YES
COc1ccc(OC)c(Cn2cc3c(c2)-c2oncc2CC3)c1	NO

Test call, this molecule: `CCCC(=O)NNc1[nH]c(-c2ccc(OC)cc2)cc1C(=O)OCC` YES

Test call, this molecule: `CC1(C)Oc2cc3oc(=O)ccc3cc2C[C@@H]1OCCOS(=O)(=O)c1ccc(C#N)cc1` NO

Test call, this molecule: `N=C(N)N=Nc1ccc(NN=C(N)N)cc1` NO

Test call, this molecule: `CCCCCCNC(=O)Oc1ccc(/C(=C(/C)Cc2ccc(OC)cc2)c2ccc(OCCN(C)C)cc2)cc1` NO

Test call, this molecule: `O=C(Cc1ccccc1[N+](=O)[O-])c1ccc2c(c1)OCO2` NO

Test call, this molecule: `COc1ccccc1C(=O)Nc1cccc(-c2cc(=O)c3c(OC)c(OC)c(OC)cc3o2)c1` NO

* * *

Consider the following compounds and their measured growth readings.
Test system: DU-145 prostate
Experimental Details: NCI-60 one-dose screen, 48 h (100 = growth as untreated, 0 = no growth, -100 = all killed)
Condition Set: 10 µM unless noted
About 83,000 compounds went through this panel and 20% of them were active in at least one assay; those are over-represented in the sample as a whole.
Write the answer as a number in %, unit excluded.

The examples below pair each entry with its known result.
O=C(OCC1CC2(Cl)C(Cl)=C(Cl)C1(Cl)C2(Cl)Cl)C1C(C(=O)OCC2CC3(Cl)C(Cl)=C(Cl)C2(Cl)C3(Cl)Cl)C2(Cl)C(Cl)=C(Cl)C1(Cl)C2(Cl)Cl (stereo not drawn)	97.4
Nc1nc(-c2cccc(Br)c2)cc(-c2cc3ccccc3oc2=O)n1	111
O=c1[nH]c2cc(O)ccc2n2cc3c(F)cccc3c12	33.9

Entry `CCCCn1c(Cc2ccc(OC)cc2)nc2cc(OC)c(OC)cc2c1=O` ; growth = 103

Entry CCC(C)C1NC(=O)C(CC(C)C)NC(=O)C(C)NC(=O)C(C(C)C)NC(=O)C(CCCCN)NC(=O)C(CC(C)C)NC(=O)C(C(C)C)NC(=O)[C@H](C)NC(=O)C(C(C)CC)NC(=O)C(CCCN=C(N)N)NC(=O)C(CCCCN)NC(=O)C(CCCN=C(N)N)NC(=O)C(CCCCN)NC(=O)C([C@H](C)CC)NC(=O)C(CCCCN)NC1=O (stereo partly drawn) ; growth = 23.8

Entry `CCc1c(C)c2ccc(OCC(=O)N=Nc3c(O)[nH]c4ccccc34)c(C)c2oc1=O` ; growth = 7.92

Entry `CCCCCCNc1nc(N2CCOCC2)c2[nH]c(NCCCCCC)nc2n1` ; growth = -88.1

Entry `CC1=C(C)C[C@]2(C(=O)O[C@H]3CCCC[C@@H]32)[S@](=O)C1` ; growth = 107

Entry `CC(=O)/C(=C/c1ccc(-c2ccccc2)cc1)C(=O)c1ccccc1` ; growth = 87.1

Entry `CCCNC(=O)Oc1ccc(/C(=C(/C)Cc2ccc(OC)cc2)c2ccc(OCCN3CCCCC3)cc2)cc1` ; growth = 97

Entry `Nc1cc2c(cc1Br)[nH]c(=O)c1ccccc12` ; growth = 27.8

Entry CCCC(C)c1cc(Cc2cc(Cl)cc(Cl)c2O)c(O)c(Cc2cc(Cl)cc(Cl)c2O)c1 (stereo not drawn) ; growth = 26.8

Entry `CC(=O)c1ccc2c(c1)c1ccccc1n2C` ; growth = 104

Entry `CSC1=Nc2c(c(C)c(-c3ccccc3)n2CCCCl)C2=NC(=O)CN12` ; growth = 94.8

Entry `Oc1ccc(CN(Cc2ccc(C(F)(F)F)cc2)Cc2ccc(O)c3ncccc23)c2cccnc12` ; growth = 24.1

Entry `O=C1/C(=C\c2cn(-c3nc(N4CCOCC4)nc(N4CCOCC4)n3)c3ccccc23)c2ccccc2N1c1c(Cl)cccc1Cl` ; growth = 57.1

Entry `CC/C(=N\Nc1nc2ccccc2n1C)c1ccccn1` ; growth = 11.8

Entry `CCCCCCNC(=O)Oc1ccc(/C(=C(/C)Cc2ccc(OC)cc2)c2ccc(OCCN3CCCCC3)cc2)cc1` ; growth = 98.9

Values from PubChem BioAssay (NCI)
